List of IC50-based peak height values.
Molecular target: Serum samples collected at week 16 from patients immunized with UBI AD vaccine (UB-311)
Assay: comp. ELISA, serum P208
API doc: respond with a numeric literal and nothing else, no unit.

VHHQKLVFFA [Aβ12-21 or APP 770 (V683-A692)] : 0

[in] For the binder AEFRHDSGYE [Aβ2-11 or APP 770 (A673-E682)] , what IC50-based peak height is on record?
[out] 0
